Catalogue of binders with associated Signal (% of Lc16Hc7)
Target: T1, human IL-13 R130Q variant (R110Q of the mature chain) (human, UniProt P35225 35-146, Biotinylated on amines (NHS-LC-biotin, 4:1) in ELISA, panning and competition assays. The letters are unchanged.)
T1 construct: R130Q counts from Met 1 of the signal peptide, R110Q on the mature chain; Bought from Peprotech; also called IL-13 R110Q; b-R130Q
T1 sequence (P35225 35-146 limits assumed, stated change not applied): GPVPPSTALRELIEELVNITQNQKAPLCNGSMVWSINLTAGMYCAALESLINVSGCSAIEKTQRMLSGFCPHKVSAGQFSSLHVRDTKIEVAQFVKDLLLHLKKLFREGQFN
Test: single-point (10 nM) phage Fab ELISA on biotinylated IL-13 R130Q
API: value field is a number in %; no unit string.

The following binders have reported results that may help.
- Binder: "Fab clone 1A07 (IL-13-62 library) (Fab, V domains shown, Fab on phage pIX) VH: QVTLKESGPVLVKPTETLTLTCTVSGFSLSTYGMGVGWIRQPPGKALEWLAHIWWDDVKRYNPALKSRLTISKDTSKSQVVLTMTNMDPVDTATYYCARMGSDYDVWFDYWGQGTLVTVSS VL: EIVLTQSPATLSLSPGERATLSCRASKSISKYLAWYQQKPGQAPRLLIYSGSTLQSGIPARFSGSGSGTDFTLTISSLEPEDFAVYYCQQHDNSPYTFGQGTKLEIK"
  Signal (% of Lc16Hc7), %: 120
- Binder: "Fab clone 4F07 (IL-13-62 library) (Fab, V domains shown, Fab on phage pIX) VH: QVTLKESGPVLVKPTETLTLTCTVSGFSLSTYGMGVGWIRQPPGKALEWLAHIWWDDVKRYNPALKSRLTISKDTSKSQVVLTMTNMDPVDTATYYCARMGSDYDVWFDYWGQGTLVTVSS VL: EIVLTQSPATLSLSPGERATLSCRASKSISKYLAWYQQKPGQAPRLLIYSGSTLQSGIPARFSGSGSGTDFTLTISSLEPEDFAVYYCQQPIDAPYTFGQGTKLEIK"
  Signal (% of Lc16Hc7), %: 116

Proceeding to the next binder to report its Signal (% of Lc16Hc7).
Asked: Recorded Signal (% of Lc16Hc7) of Fab clone 2C06 (IL-13-62 library) (Fab, V domains shown, Fab on phage pIX; del = residue deleted) VH: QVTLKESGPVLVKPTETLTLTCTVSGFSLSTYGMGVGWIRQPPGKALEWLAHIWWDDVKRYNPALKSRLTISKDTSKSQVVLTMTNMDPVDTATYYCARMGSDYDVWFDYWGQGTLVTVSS VL: EIVLTQSPATLSLSPGERATLSCRASKSISKYLAWYQQKPGQAPRLLIYSGSTQQSGIPARFSGSGSGTDFTLTISSLEPEDFAVYYCQQHDYPYTFGQGTKLEIK , please.
Given back: 128

Hey, just so you know, these numbers are from patent US20120045438A1.
